target of assay: HIV-1 RT enzyme (wild type) (Human immunodeficiency virus type 1 group M subtype B)
Construct: The reverse transcriptase (RT) enzyme assay has been adapted to a 96-well microtiter plate format
protocol text: Reverse transcriptase (RT) enzymatic assay (IC50), PicoGreen fluorescence, wild type
Type: biochemical
Let's look at some compounds and their measured IC50.

q: Report IC50 for OC(CNc1ccccc1Cl)CSc1nnnn1-c1cccc2ccccc12 (stereo not drawn) [Entry 330] please.
a: 50 to 100 nM

* * *

Tested on: HIV-1 resistant mutant K103N/Y181C in C8166 LTRluc cells
protocol text: C8166 HIV-1 luciferase assay (EC50), resistant mutant
Assay type: cell-based
recorded conditions: Human immunodeficiency virus 1, C8166, read-out: EC50 K103N/Y181C
measurement type: EC50

q: May I ask what EC50 has been recorded for `CC(C)(C)c1ccc(-n2nnnc2SCC(=O)Nc2ccc(S(=O)(=O)c3ccc(Cl)cc3)cc2Cl)c(Cl)c1` ?
a: > 100 nM

---
q: Entry `Cc1ccc(-n2nnnc2SCC(=O)Nc2ccc(C(N)=O)cc2Cl)c(Cl)c1` : reported EC50 = ?
a: < 50 nM

q: # lookup: EC50 of `Cc1ccc(NC(=O)CSc2nnnn2-c2ccc(C(C)(C)C)cc2Cl)c(Cl)n1`
a: 50 to 100 nM

q: // EC50 lookup, key: `O=C(CSc1nnnn1-c1cccc2ccccc12)Nc1ccc(O)cc1Cl`
a: > 100 nM

* * *

System: HIV-1 resistant mutant K103N/Y181C in C8166 LTRluc cells
protocol text: C8166 HIV-1 luciferase assay (EC50), resistant mutant
Assay type: cell-based
recorded conditions: Human immunodeficiency virus 1, C8166, read-out: EC50 K103N/Y181C
pEC50: −log10 of the molar value.
The entries below come with measured pEC50 values attached.

q: Value lookup for pEC50; key = `CC(C)(C)OC(=O)N1CCN(c2ccc(NC(=O)CSc3nnnn3-c3ccc(C(C)(C)C)cc3Cl)c(Cl)c2)CC1`
a: < 7.00

q: Quick one: pEC50 for `Cc1cc(C(F)(F)F)cc(-n2nnnc2SCC(=O)Nc2ccc(S(N)(=O)=O)cc2Cl)c1Cl` ?
a: > 7.30

q: Name the recorded pEC50 for `CC(C)(C)c1ccc(-n2nnnc2SCC(=O)Nc2ccc(N)cc2Cl)c(Cl)c1` .
a: 7.00 to 7.30

q: pEC50 for `O=C(CSc1nnnn1-c1ccc(I)cc1Cl)Nc1ccccc1Cl` ?
a: < 7.00

q: pEC50 for `Cc1ccc(-n2nnnc2SCC(=O)Nc2ccc(C(=O)O)cc2[N+](=O)[O-])c(Cl)c1` ?
a: < 7.00

q: Using the record for `Cc1ccc(-n2nnnc2SCC(=O)Nc2ccc(C(N)=O)cc2[N+](=O)[O-])c(Cl)c1` , report its pEC50.
a: > 7.30

***
q: Can you share its pEC50? I mean this compound: `CC(C)CS(=O)(=O)c1ccc(NC(=O)CSc2nnnn2-c2ccc(C(C)(C)C)cc2Cl)c(Cl)c1`
a: 7.00 to 7.30

q: Requested field: pEC50. Item: `Cc1nnc(SCC(=O)Nc2ccccc2[N+](=O)[O-])n1-c1cccc2ccccc12`
a: < 7.00

q: Which measured pEC50 value corresponds to `Cc1ccc(-n2nnnc2SCC(=O)Nc2ccc(-c3cccnc3)cc2Cl)c(Cl)c1` ?
a: < 7.00

q: Form field: reported pEC50 of `CC(C)(C)c1ccc(-n2nnnc2SCC(=O)Nc2ccc([N+](=O)[O-])cc2Cl)c(Cl)c1`
a: < 7.00

q: Give the measured pEC50 of `Cc1ccc(-n2c(C)nnc2SCC(=O)Nc2ccccc2[N+](=O)[O-])c(Cl)c1` .
a: < 7.00

q: What does the record list as pEC50 for `Cc1ccc(-c2ccccc2SCC(=O)Nc2ccccc2Cl)c(Cl)c1` ?
a: < 7.00

q: Can you look up the measured pEC50 of `Cc1ccc(-c2ccccc2SCC(=O)Nc2ccccc2[N+](=O)[O-])c(Cl)c1` for me?
a: < 7.00

q: Given `Cc1ccc(-n2nnnc2SCC(=O)Nc2cccnc2Cl)c(Cl)c1` , state its recorded pEC50.
a: < 7.00

q: // pEC50 lookup, key: `Cc1ccc(-n2nnnc2SCC(=O)Nc2ccccc2Cl)c(Cl)c1`
a: < 7.00

# credit: patent US7642277B2
